# system: T1, human C1s (human)
# T1 chain: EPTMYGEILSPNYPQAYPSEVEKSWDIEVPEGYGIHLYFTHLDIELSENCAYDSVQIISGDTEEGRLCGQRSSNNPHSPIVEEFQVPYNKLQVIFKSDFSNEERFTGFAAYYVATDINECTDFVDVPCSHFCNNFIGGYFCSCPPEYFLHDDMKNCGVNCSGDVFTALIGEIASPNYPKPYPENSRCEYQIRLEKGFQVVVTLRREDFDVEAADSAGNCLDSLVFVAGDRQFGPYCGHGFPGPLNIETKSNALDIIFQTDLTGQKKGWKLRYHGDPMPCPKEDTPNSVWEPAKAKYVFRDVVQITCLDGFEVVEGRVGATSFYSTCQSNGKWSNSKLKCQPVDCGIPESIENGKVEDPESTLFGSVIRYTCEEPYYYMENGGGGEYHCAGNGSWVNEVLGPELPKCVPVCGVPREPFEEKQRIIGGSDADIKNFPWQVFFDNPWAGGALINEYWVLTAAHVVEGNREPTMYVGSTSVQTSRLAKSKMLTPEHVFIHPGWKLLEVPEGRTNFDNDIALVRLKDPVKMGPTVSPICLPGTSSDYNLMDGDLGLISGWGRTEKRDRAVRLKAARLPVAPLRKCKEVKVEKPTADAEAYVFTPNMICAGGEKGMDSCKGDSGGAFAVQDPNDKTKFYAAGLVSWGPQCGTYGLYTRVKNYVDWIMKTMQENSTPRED
# protocolText: SPR pH 5.8 37C
# maps each entry to its Kd

{"binder": "IPN009VH2/IPN009VK3 (antibody, V domains shown) VH: EVMLVESGGGLVKPGGSLRLSCAASGFTFSNYAMSWVRQAPGKGLEWVATISSGGSHTYYLDSVKGRFTISRDNSKDTLYLQMNSLRAEDTALYYCARLFTGYAMDYWGQGTLVTVSS VL: QIVLTQSPATLSLSPGERATLSCTASSSVSSSYLHWYQQKPGKAPKLWIYSTSNLASGVPSRFSGSGSGTDYTLTISSLQPEDFATYYCHQYYRLPPITFGQGTKLEIK", "Kd [nM]": 0.164}
{"binder": "IPN009VH2/IPN93L0021 (antibody, V domains shown) VH: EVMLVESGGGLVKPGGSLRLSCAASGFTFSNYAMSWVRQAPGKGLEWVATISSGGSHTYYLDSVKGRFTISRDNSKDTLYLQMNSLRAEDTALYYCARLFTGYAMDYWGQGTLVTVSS VL: QIVLTQSPATLSLSPGERATLSCTASSSVSSSYLHWYQQKPGKAPKLWIYSTSNLASGVPSRFSGSGSGTDYTLTISSLQPEDFATYYCHQHYRLPPITFGQGTKLEIK", "Kd [nM]": 3.21}
{"binder": "IPN009VH2/IPN93L0024 (antibody, V domains shown) VH: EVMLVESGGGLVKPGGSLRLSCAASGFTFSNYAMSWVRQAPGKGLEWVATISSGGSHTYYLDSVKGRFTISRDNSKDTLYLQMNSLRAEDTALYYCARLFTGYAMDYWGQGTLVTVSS VL: QIVLTQSPATLSLSPGERATLSCTASSSVSSSYLHWYQQKPGKAPKLWIYSTSNLASGVPSRFSGSGSGTDYTLTISSLQPEDFATYYCHQYYRLHPITFGQGTKLEIK", "Kd [nM]": 3.87}
{"binder": "IPN92H0033/IPN009VK3 (antibody, V domains shown) VH: EVMLVESGGGLVKPGGSLRLSCAASGFTFSNYAMSWVRQAPGKGLEWVATISSGGSHTYYLDSVKGRFTISRDNSKDTLYLQMNSLRAEDTALYYCARLFTGHAMDYWGQGTLVTVSS VL: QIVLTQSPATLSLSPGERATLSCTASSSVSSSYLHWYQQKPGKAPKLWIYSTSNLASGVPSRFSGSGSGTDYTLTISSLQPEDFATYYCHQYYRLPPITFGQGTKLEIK", "Kd [nM]": 0.515}
